# Test system: RAW-Dual
# experimental-protocol: NF-kB SEAP reporter activity, fold change vs agonist alone; higher = enhanced NF-kB activity
# stated-conditions: library stock concentration (final ~1000-fold dilution): 10 mM; cytotoxicity flag (confluency mask): not cytotoxic; agonist: MPLA (TLR4) […]
Whole data set: some 2,900 compounds, median “NF-kB SEAP reporter activity, fold change vs agonist alone” near 0.99, cut for the highest 2% near 2.6. What follows is part of a selection rich in the highest values, with near analogues and random picks from the rest.
recorded-endpoint: NF-kB SEAP reporter activity
A bare number is all that is needed in reply.

Here is how some compounds turned out for NF-kB SEAP reporter activity.
CN1CCN(S(=O)(=O)c2ccc(-c3cnc(N)c(C(=O)Nc4cccnc4)n3)cc2)CC1	2.5
CS(=O)(=O)c1ccc(C(=O)Nc2ccc(Cl)c(-c3ccccn3)c2)c(Cl)c1	0.945
CC/C(C)=C/CC[C@](C)(O)C1CC[C@]2(C)C3C[C@@H](O[C@@H]4O[C@H](CO)[C@@H](O)[C@H](O)[C@H]4O[C@@H]4O[C@@H](C)[C@H](O)[C@@H](O)[C@H]4O)C4C(C)(C)C(O)CC[C@]4(C)C3C[C@H](O)C12 (some centres undefined)	0.934
Cc1cc(C)cc(Oc2ccc(CNC(=O)C(C)N)cc2C)c1 (centres undefined)	1.3
CC(=O)Oc1cc2c(s1)CCN(C(C(=O)C1CC1)c1ccccc1F)C2.Cl (centres undefined)	0.869
COc1ccccc1Nc1nc(-c2sc(NC(C)=O)nc2C)cs1	0.687

Entry under test: CCn1cc(C(=O)O)c(=O)c2cc(F)c(N3CCN(C)CC3)cc21.CS(=O)(=O)O.O.O . Its NF-kB SEAP reporter activity was 0.814

GET /value?item= CS(=O)(=O)c1ccc(-c2cnc(N)c(C(=O)Nc3ccccc3)n2)cc1 &field=NF-kB SEAP reporter activity returns 2.21

The recorded NF-kB SEAP reporter activity for Cl.Cl.Fc1cc(-c2cccc3ncc(-c4cnn(C5CCNCC5)c4)nc23)cc(F)c1CN1CCOCC1 is 0.944

====

NF-kB SEAP reporter activity overview
# Tested on: RAW-Dual
# experimental-protocol: NF-kB SEAP reporter activity, fold change vs agonist alone; cytotoxicity flag (confluency mask): not cytotoxic; higher = enhanced NF-kB activity
# stated-conditions: agonist: Pam3CSK4 (TLR2/1) 0.1 ug/mL
Over roughly 2,900 compounds, “NF-kB SEAP reporter activity, fold change vs agonist alone” has its median near 0.99; the highest 2% begin near 2.6. This excerpt belongs to a sample that is enriched for the highest values.
// response body must contain only the number

C=CC1(C)CC(OC(=O)CSCCN(CC)CC)C2(C)C(C)CCC3(CCC(=O)C32)C(C)C1O (stereo not given) (library stock concentration (final ~1000-fold dilution): 10 mM)	0.934

Notebook: O=C(/C=C/c1ccc(O)c(O)c1/C=C/c1ccc(O)c(O)c1)OC(Cc1ccc(O)c(O)c1)C(=O)O (stereo not given) (library stock concentration (final ~1000-fold dilution): 10 mM) , NF-kB SEAP reporter activity read as 0.289

NF-kB SEAP reporter activity measured on CC(C)n1c(C=CC(O)CC(O)CC(=O)O)c(-c2ccc(F)cc2)c2ccccc21 (stereo not given) (library stock concentration (final ~1000-fold dilution): 10 mM) = 3.38

// recorded NF-kB SEAP reporter activity for CC1c2cccc(O)c2C(=O)C2=C(O)C3(O)C(=O)C(C(N)=O)=C(O)C(N(C)C)C3C(O)C21 (stereo not given) (library stock concentration (final ~1000-fold dilution): 10 mM) : 0.885

Value of NF-kB SEAP reporter activity reported for the compound O=C(Nc1cc(C(F)(F)F)ccc1N1CCN(Cc2ccccn2)CC1)c1ccc(-c2ccncc2)o1 (library stock concentration (final ~1000-fold dilution): 10 mM) is 0.818

The recorded NF-kB SEAP reporter activity for Cc1cc(Nc2nc(NC(C)c3ccc(F)cc3)c(C#N)cc2F)n[nH]1 (stereo not given) (library stock concentration (final ~1000-fold dilution): 10 mM) is 0.993

Quick note, NF-kB SEAP reporter activity for CC(C)c1nc(N(C)S(C)(=O)=O)nc(-c2ccc(F)cc2)c1/C=C/C(O)CC(O)CC(=O)O (stereo not given) (library stock concentration (final ~1000-fold dilution): 10 mM) landed at 1.1

Lab note: CC(C)CC(NC(=O)CNC(=O)c1cc(Cl)ccc1Cl)B1OC(=O)CC(CC(=O)O)(C(=O)O)O1 (stereo not given) (library stock concentration (final ~1000-fold dilution): 10 mM) gave NF-kB SEAP reporter activity of 0.999

Notebook: COC(=O)C1=C(C)NC(C)=C(C(=O)OCCN2CCN(C(c3ccccc3)c3ccccc3)CC2)C1c1cccc([N+](=O)[O-])c1.Cl.Cl (stereo not given) (library stock concentration (final ~1000-fold dilution): 10 mM) , NF-kB SEAP reporter activity read as 0.405

For record CCCN(CCC)C(=O)C1=Cc2ccc(-c3ccc(C(=O)N4CCCC4)cc3)cc2N=C(N)C1 (library stock concentration (final ~1000-fold dilution): 1 mM) the listed NF-kB SEAP reporter activity is 1.26
